The following compounds each carry a recorded IC50 for Focal adhesion kinase 1 (Homo sapiens, UniProt Q05397).

C=CC(=O)Nc1ccccc1Nc1nc(Nc2ccc(OCCCOC3(CC)OCC(C)(C)CO3)cc2)ncc1F; > 100 nM

We next turn to a different compound, shown below.
Short answer on Focal adhesion kinase 1 (Homo sapiens, UniProt Q05397) for C=CC(=O)N1CCC[C@@H](Nc2nc(Nc3ccc(OCCCOC4(CC)OCC(C)(C)CO4)cc3)ncc2F)C1 , IC50: > 100 nM

Values from ChEMBL document CHEMBL5729309
